# Test Description: Components of the Cytosolic LPS Sensing Pathway: Gene Identification via Genome-wide siRNA Screen;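 further: robust z of the log signal after scaling to non-targeting control siRNA wells of the plate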
# Assay Setup: RAW264.7 macrophages, IL-1a HTRF, actives lie on both sides, screened at 100 nM (by protocol), cells primed 5 h with Pam3CSK4 first
Out of some 53,000 sequences screened, about 3,700 (7%) were called active. The entries come from a sample that favours actives as a whole.
Endpoint Name: z-score
Returns: the value as a bare number; no unit string appended.

Answered examples (5):
-- ask Query (sequence): GCGCAAGCCGUAUUCGAAGTT against Hoxc12 ; field requested: z-score
-- reply 2.95

-- ask Same again, this time with CCAACUUCAAAACUAUCGUTT against Trp53bp1
-- reply 2.19

-- ask Same again, this time with GGAUCCUUCGAAUCCUGAATT against Cst11
-- reply -0.372

-- ask Same again, this time with GCACCGUGUGACCAUGAACTT against Akt1
-- reply 3.96

-- ask Same again, this time with GCUCCUAAAAAGGCUCUUUTT against H2ac18
-- reply -0.463

Further cases:
-- ask Query (sequence): GCCAAUUUGACUUGUAAGUTT against Slc22a3 ; field requested: z-score
-- reply 1.4

-- ask Same again, this time with GGGCAGUAAGACCUUCAUGTT against Dhcr24
-- reply 0.685

-- ask Same again, this time with GGAGACUCCAUACCAGUGUTT against Zfp329
-- reply 1.78

-- ask Same again, this time with GGCAGUGUACAUCUGGAUATT against Olfr611
-- reply 1.85

-- ask Same again, this time with CCAACAUCUCUGUAUACUGTT against Olfr8
-- reply 0.178

-- ask Same again, this time with GCAGGAUUGAAACAUGUAUTT against Tcl1b3
-- reply -0.298

-- ask Same again, this time with GAAGGAAGAAUAUUGGCCCTT against Il17rd
-- reply -1.88

###

# Test Description: Components of the Cytosolic LPS Sensing Pathway: Gene Identification via Genome-wide siRNA Screen;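 further: robust z of the log signal after scaling to non-targeting control siRNA wells of the plate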
# Assay Setup: RAW264.7 macrophages, IL-1a HTRF, actives lie on both sides, screened at 100 nM (by protocol), cells primed 5 h with Pam3CSK4 first
Out of some 53,000 sequences screened, about 3,700 (7%) were called active. The full list was thinned out, with actives kept by preference.
Collected z-score values appear next to each entry.

Answered examples (3):
-- ask Query (sequence): CGGAAAAUUUGUUCCUGACTT against Rbm12b2 ; field requested: z-score
-- reply 1.44 (inactive)

-- ask Same again, this time with GGAGCGAAGUGAUGAAUAATT against Prph2
-- reply 0.0677 (inactive)

-- ask Same again, this time with CCGCGUCUGUAUUUGAUAUTT against Sccpdh
-- reply 1.68 (inactive)

Further cases:
-- ask Query (sequence): GCUUACCCUGACUCCAAUUTT against Dhx33 ; field requested: z-score
-- reply -1.76 (inactive)

-- ask Same again, this time with GAGUGAGCAAAUACCAGUUTT against 1700001J03Rik
-- reply 2.52 (active)

-- ask Same again, this time with GCGUGCAGCCCUCAAUGAATT against Ppp2r5b
-- reply 0.84 (inactive)

-- ask Same again, this time with GCAGGCAUCGUGUUUACCATT against Cdh20
-- reply 1.86 (inactive)

-- ask Same again, this time with GCAUCUCAAGGAUCUUCGGTT against Syngr4
-- reply -0.0821 (inactive)

-- ask Same again, this time with GGUCUUUUGUAAAAACCCUTT against Sytl2
-- reply 0.099 (inactive)

-- ask Same again, this time with GGAAUGUUAACAAAGAGCATT against Sgcb
-- reply 0.8 (inactive)
